The reported measurements were obtained from patent US20260297080A1.

Target: CDK1/Cyclin B1 (Homo sapiens, UniProt P06493)
Sequence (P06493 whole entry): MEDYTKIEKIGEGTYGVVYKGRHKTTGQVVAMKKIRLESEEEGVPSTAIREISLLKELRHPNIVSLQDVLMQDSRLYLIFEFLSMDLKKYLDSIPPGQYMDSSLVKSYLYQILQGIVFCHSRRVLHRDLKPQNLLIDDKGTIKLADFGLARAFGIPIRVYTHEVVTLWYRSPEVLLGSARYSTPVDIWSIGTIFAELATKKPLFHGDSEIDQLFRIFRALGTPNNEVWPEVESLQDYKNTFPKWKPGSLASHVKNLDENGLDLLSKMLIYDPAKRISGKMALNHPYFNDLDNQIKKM
Sequence (P14635 whole entry partner): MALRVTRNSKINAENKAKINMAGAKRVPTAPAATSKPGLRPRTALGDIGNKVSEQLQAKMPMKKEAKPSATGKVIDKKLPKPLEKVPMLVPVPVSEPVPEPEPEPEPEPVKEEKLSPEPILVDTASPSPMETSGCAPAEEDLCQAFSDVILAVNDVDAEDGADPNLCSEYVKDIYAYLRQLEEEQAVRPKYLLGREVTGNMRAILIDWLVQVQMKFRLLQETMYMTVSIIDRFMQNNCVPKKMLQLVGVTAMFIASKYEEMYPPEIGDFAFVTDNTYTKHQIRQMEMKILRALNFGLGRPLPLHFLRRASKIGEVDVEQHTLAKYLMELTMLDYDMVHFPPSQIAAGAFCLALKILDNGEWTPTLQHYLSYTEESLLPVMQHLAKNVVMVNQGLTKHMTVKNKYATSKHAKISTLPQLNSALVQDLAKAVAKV
Assay: CDK1/Cyclin B1 Biochemical Assay (TR-FRET), 1 mM ATP
Settings: 0.15 μM Rb (Ser780)-biotin substrate, pH7.0, 60 min preincubation, 90 min reaction, room temperature
pIC50: −log10 of the molar value.
MEASURED_ATTRIBUTE: pIC50

Worked cases, answers included:
{"COMPOUND": "O=C(NC12CC(C1)C2)O[C@H]1CC[C@@H](c2cc(Nc3cc4c(cc3F)S(=O)(=O)NC4)n[nH]2)C1 (single isomer, unassigned) [Example 422a]", "ASSAY_SYSTEM": "CDK1/Cyclin B1 (Homo sapiens, UniProt P06493)", "pIC50": 5.49}
{"COMPOUND": "CC(C)NC(=O)O[C@H]1CC[C@@H](c2cc(Nc3ccc4c(c3F)CS(=O)(=O)N4CC(C)(C)O)n[nH]2)C1 (single isomer, unassigned) [Example 254b]", "ASSAY_SYSTEM": "CDK1/Cyclin B1 (Homo sapiens, UniProt P06493)", "pIC50": 5.86}

[A] CCCNC(=O)O[C@H]1CC[C@@H](c2cc(Nc3ccc4c(c3F)CS(=O)(=O)N4CC(C)(C)O)n[nH]2)C1 [Example 433b]
[B] [2H]C([2H])([2H])N1c2ccc(Nc3cc([C@@H]4CC[C@H](OC(=O)NC(C)(C)C)C4)[nH]n3)cc2CS1(=O)=O (relative stereo) [Example 454]
[C] CC(C)(CO)NC(=O)O[C@H]1CC[C@@H](c2cc(Nc3ccc4c(c3F)CS(=O)(=O)N4C3CC3)n[nH]2)C1 (single isomer, unassigned) [Example 363a]
[D] CC1(NC(=O)O[C@H]2CC[C@@H](c3cc(Nc4ccc5c(c4F)CS(=O)(=O)N5)n[nH]3)C2)CCC1 (single isomer, unassigned) [Example 427b]
Task: Sort entries by pIC50 from minimum to maximum value. In plain terms: list the labels in the order you were asked to.
Output: C, A, B, D

---

Target: CDK2/Cyclin E1 (Homo sapiens, UniProt P24941)
Assay: CDK2/Cyclin E1 Biochemical Assay (TR-FRET), 0.060 mM ATP
Conditions: 0.15 μM Rb (Ser780)-biotin substrate, pH7.0, 60 min preincubation, 120 min reaction, room temperature
MEASURED_ATTRIBUTE: IC50 (nM)

{"MOLECULE": "CC(CC(F)(F)F)NC(=O)O[C@H]1CC[C@@H](c2cc(Nc3cc4c(cc3F)S(=O)(=O)NC4)n[nH]2)C1 (relative stereo)", "IC50 / nM": 1.8}
{"MOLECULE": "CC1(NC(=O)O[C@H]2CC[C@@H](c3cc(Nc4ccc5c(c4)NS(=O)(=O)C5)n[nH]3)C2)CC1 (relative stereo)", "IC50 / nM": 2.5}
{"MOLECULE": "CC(C)NC(=O)O[C@H]1CC[C@@H](c2cc(Nc3ccc4c(c3F)CN(CC3CN(S(C)(=O)=O)C3)S4(=O)=O)n[nH]2)C1 (relative stereo)", "IC50 / nM": 6.6}

[I] Cc1c(Nc2cc([C@@H]3CC[C@H](OC(=O)NC(C)C)C3)[nH]n2)ccc2c1CN(C)S2(=O)=O (relative stereo)
[II] CC(C)NC(=O)O[C@H]1CC[C@@H](c2cc(Nc3ccc4c(c3F)C(C)NS4(=O)=O)n[nH]2)C1 (single isomer, unassigned) [Example 51a]
[III] CCCNC(=O)O[C@H]1CC[C@@H](c2cc(Nc3ccc4c(c3F)CS(=O)(=O)N4C3COC3)n[nH]2)C1 (single isomer, unassigned) [Example 260a]
Task: Sort entries by IC50 from minimum to maximum value. In plain terms: list the labels in the order you were asked to.
Output: II, III, I
(II: 2.5 nM, III: 5.9 nM, I: 8.9 nM)
